# Target Entity: T1, wild type Rb pocket domain (Rb^P) (human, UniProt P06400 380-788)
# T1 sequence: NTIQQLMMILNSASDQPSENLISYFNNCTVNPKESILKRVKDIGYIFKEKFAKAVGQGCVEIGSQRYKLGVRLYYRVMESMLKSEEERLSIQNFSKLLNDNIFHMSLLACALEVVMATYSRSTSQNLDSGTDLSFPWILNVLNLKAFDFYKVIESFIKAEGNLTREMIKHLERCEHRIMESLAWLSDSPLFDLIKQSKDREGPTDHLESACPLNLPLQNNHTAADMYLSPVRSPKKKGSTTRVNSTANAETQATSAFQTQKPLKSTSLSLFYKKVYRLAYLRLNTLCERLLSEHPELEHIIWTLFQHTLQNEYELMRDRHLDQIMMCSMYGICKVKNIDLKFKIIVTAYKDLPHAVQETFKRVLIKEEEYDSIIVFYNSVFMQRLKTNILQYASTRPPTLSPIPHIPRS
# Assay Protocol: fluorescence polarisation
Where no end group is shown, it is not given here. TMR = tetramethyl rhodamine dye
Test Readout: Kd
Number first, unit second.

Measured Kd of {TMR}-GEGIRDLFDCDFGDLTPLD [TMR-E2F1^TD (peptide of the E2F1 transactivation domain, N-labeled with tetramethyl rhodamine)] : 22 nM
